- test name: soluble on expression in E. coli; label from the status in PepcDB or PDB records
assay readout: soluble on expression in E. coli

INSERT INTO results (monomer_sequence, data_value) VALUES
  ('MSLAMSKVKSITRESWILSTFPEWGSWLNEEIEQEQVAPGTFAMWWLGCTGIWLKSEGGTNVCVDFWCGTGKQSHGNPLMKQGHQMQRMAGVKKLQPNLRTTPFVLDPFAIRQIDAVLATHDHNDHIDVNVAAAVMQNCADDVPFIGPKTCVDLWIGWGVPKERCIVVKPGDVVKVKDIEIHALDAFDRTALITLPADQKAAGVLPDGMDDRAVNYLFKTPGGSLYHSGDSHYSNYYAKHGNEHQIDVALGSYGENPRGITDKMTSADMLRMGEALNAKVVIPFHHDIWSNFQADPQEIRVLWEMKKDRLKYGFKPFIWQVGGKFTWPLDKDNFEYHYPRGFDDCFTIEPDLPFKSFLEGGSHHHHHH', 'soluble'),
  ('MSLKNIEKELENLRTIFRSIGLIKFKPYFSYMGLFKDDTMFGLYKEKCLYLRKSDQYLQEIKDTIPIHFLSDHKISRQSKIFYLVPQHIIENISSYSHWITSSISEYQRLRSKIRTENQTKIRILLNMNINIERLLARVNINTVDEFKQVGETKAFVRLIQQGFEVNQLLLFKLYGALQHKYIYMLSLEEKKRLLEQADSALYDAGLRKRFTVEGHHHHHH', 'soluble'),
  ('MGSDKIHHHHHHMTKVAHLTSVHSRYDIRIFRKQCRTLSQYGYDVYLVVADGKGDEVKDGVRIVDVGVLSGRLNRILKTTRKIYEQALALGADVYHFHDPELIPVGLRLKKQGKQVIFDSHEDVPKQLLSKPYMRPFLRRVVAVLFSCYEKYACPKLDAVLTATPHIREKFKNINGNVLDINNFPMLGELDAMVPWASKKTEVCYVGGITSIRGVREVVKSLECLKSSARLNLVGKFSEPEIEKEVRALKGWNSVNEHGQLDREDVRRVLGDSVAGLVTFLPMPNHVDAQPNKMFEYMSSGIPVIASNFPLWREIVEGSNCGICVDPLSPAAIAEAIDYLVSNPCEAAALGRNGQRAVNERYNWDLEGRKLARFYSDLLSKRDSI', 'not soluble'),
  ('MGSDKIHHHHHHMEKILDLLMSFVKEDEGKLDLASFPLRNTTAGAHLLLKTENVVASGIEVSRMFLEKMGLLSKFNVEDGEYLEGTGVIGEIEGNTYKLLVAERTLLNVLSVMFSVATTTRRFAEKLKHAKIAATRKILPGLGVLQKIAVVHGGGDPHRLDLSGCVMIKDNHLKMYGSAERAVQEVRKIIPFTTKIEVEVENLEDALRAVEAGADIVMLDNLSPEEVKDISRRIKDINPNVIVEVSGGITEENVSLYDFETVDVISSSRLTLQEVFVDLSLEIQR', 'soluble'),
  ('MTLKTSVLALLLDNVHVLLIANPESTTQTQKLFRRVVPALMALDGVSLEARFTHYGGHAEEMVAGLTVDDFDVIIPAGGDGTVNEVINGLLGSAEGDFRNLEDLPAIAVLPTGSANVFARALGYPTDPYAAADALVELIRKNHTRTITLGTWKGDDQGTRWFAVNAGFGIDADVIARVERARSFGFAASPLLYLQVSLRAWVKTQIKPPKITVEAVDSKGHKLQKEEVPMLLASNTNPWTFLGPLPVVTNPQNSFDTGLGLFGLTSVRGFGGVAAMMHLIGVGHGRKLEKLIAKRTIAFDDAEKVTLTCDSDQRFQVDGEYEGKPTKVVLESITDAVRVYAPKTHPTPPIMNWAVHLFKHVRDFLRVRTFGI', 'not soluble');

----------
- test name: soluble on expression in E. coli; label from the status in PepcDB or PDB records
assay readout: soluble on expression in E. coli

INSERT INTO results (monomer_sequence, data_value) VALUES
  ('MGSDKIHHHHHHMSHLPHLIAKLENHAEWVKRLVLVGQKSWHTPLQKGGWSPAEVIHHFHRWDDFARNYRFIPFLAGRATFTAGAHAKFNEHSEREVRDGLGKEAIIVQCLKSRYALIETVEKLREEAWEQTLTIGDHDLSIHTYLQGVIEHDRHHREQIEQFFSLEQQGKLPMVNITERCGEELPMNLLLLADPEQAMIERYLSGGLGFLAEVEGTPVGVIVLKDKGHGLFEVMNIAVAEQEQGKGYGKLLLLHGIHVALKRGADRIEIGTGNSSIGQLALYQRCGFSITAVDKDFFTKHYHEPIVEQGIRCEHMIRLAQDLK', 'not soluble'),
  ('MGSDKIHHHHHHMTPTVLLANPRGFCAGVDRAIAIVERALEKFGAPIYVRHEVVHNTFVVDDLKRKGAVFVEELSEVPAGATVIFSAHGVSQAVRTEAAARGLTVFDATCPLVTKVHVEVSKMRDKGYEIVMIGHKGHPEVEGTLGQSAGGMYLVETPGDVATLEVTNPDCLAYVTQTTLSVDDAARVVDALRARFPTITGPKKDDICYATQNRQDAVKHLASQCDVVIVVGSPTSSNSNRLREVAENLGIAAYMVDNADEIDPRWVSGNQRVGVTAGASAPDVLVRAVIDRLERLGICSVSELDGVQEKVGFPLPRELA', 'not soluble');

----------
- test name: soluble on expression in E. coli; label from the status in PepcDB or PDB records
assay readout: soluble on expression in E. coli

INSERT INTO measurements (monomer_sequence, data_value) VALUES
  ('SNLLYKRWVERCRNIVDKLSEDRIGYVHVKGMDSQSFREVYSEVLGRCRNKEAIIVDTRHNGGGWLHDDLATLLSGKEYQRFVPRGQYIGSDPFNKWLKPSCVLVCEDNYSNAHGFPWVYKELKIGKLIGAPVPGTMTAVWWENQIDPSIVFGIPQVGCMDMRGQYAENHQLSPDIEVYNTPEKALAGEDQQLEAAVQEMLKTIGEKK', 'not soluble'),
  ('MIPLLGIISLSLNISGPKYRLEMGLGGKVAVDSTFSNEGVQKATEPNGTKVTYYYGGESKGFIEFSSDWKLKINEKCDINFGPRIKLLNISHIAKNIFFFLGITAGAGFEFNYNIRENVKFYTGIDGLIGMGTFMNLNNSSSKDTESKKISVIYDFIPESNVTVGTKINDKYNVGLFVDILQGYFGLKAGYTF', 'not soluble'),
  ('MSKDEILKLGREEFFKSVKMEYRPYFEPYETPESVYPDGSINIDCTCLHSALAHRCGYLIRDALVCFNASKTTPRGLDCEKEFVAHAICTEEANNKS', 'not soluble');

----------
- test name: soluble on expression in E. coli; label from the status in PepcDB or PDB records
assay readout: soluble on expression in E. coli

INSERT INTO assay_data (monomer_sequence, data_value) VALUES
  ('MLRPLSKTDCPMLQEINAKALGYLVSLDLLERQYERLIEDCHHYFLAYADKDTNQLLGYVHAERYETLYASDGLNLLGLAVLPAYQRRGIGSALLRALESQARQEGIAFIRLNSASHRKEAHAFYRNLDYADDKTQLRFIKNLQGDDNDF', 'not soluble'),
  ('MGHGEEPLTATYKTQRPPWIGLWSDREYKGRADWWKEPGLEDSVTRSGKLRLYRARFREEDPDWYDPKVKDGESLAGPFGLDSKKTKNLTKKGDQPGELSEFQNKVYEGSHQFKAIAEKFGISKEHPGLSVSPTLSDNMLTPKDELGRNAVLPNSWYPAGPRFFDSPLNEGSFWKGLAAAKYAGILLAPYTMLEIRALNTVSVSEFSPRTYMKRYLQLAPFPLAVAFAWGFSLSAASSIRHKDDVHNHWFASVAVGSTVATMKSNVALGTTAAIFTAILGAFWQYQRHSETGLQGMTAHPQSAGIWGGPLLWQKMQLGNADVPTTRY', 'not soluble'),
  ('MAHHHHHHMASVSSGVPLTAPSAQKLLQSVKYILLDVDGVVWSGPRVLPNIPQTLQYLRSLGKEIRFLTNNASVSRSSLAQLFRQRGIEGVKESEVYNSGYAAALRLRRICGAAEGNQERQEGNEPTSDKRLVRGNVFVIGEEGLHEELQRVLAPGYITYGMELHDAEKVGGYNSANAATAWKERILPAPLRQLKPPDGITDYGRGISLTDLSPVAVVVGLDLHFNMLKLAYASLCLHRGAGSNTDSEGDRIGGDRDRTPDKGLQKPVCFIATNEDPQIPIGEEGLLLPGAGGMVSALRTVSGRNPDAVCGKPHVDMARIMFEAEGITDARQCLMVGDRLTTDIAFGNAAGCRTLFVLSGAESMADIARAKSTGDSQLLPEFVAPSLASLMPDARDD', 'soluble'),
  ('MRAAQALPQTAHVSHFGHGPRLVLALHCTIAHSGAWKGLTRILGEEAQFTAPDMLSHGRSPDWDGQGCFQDRILGIARTCLTEAPMDVIGHSFGATVALRLAVEHPERVRSLTLIEPVFFAVARQDAPELIDSHASDAQPYLDALAAGDHALAARLFNRMWSTADSPRWPDLPEATRAAMIRGIHVVPTMDAALFDDTAGLLAPGRLDRAAMPVLLLRGALTHPVMQAISMGLQRRLPDAVEMVIEGAGHMLPITHPDETAAHIRALWSRTG', 'not soluble'),
  ('MAHHHHHHMSVRERAVVLVDGPAVVHRWYHRWSYTSKHTPVDVKRFTITNARHIIATAHSFDPSHLAQHLLSPQVEYAHTPKHNKIIVCFDQGDGGRRELYPAYKENRAEREHAAELSVIKKVAIKVFTGEPKNTLIVLPDLDAKLKDVDAEADDIIATLALHNQQLKIPTVVMSHDYDLYQLIDEANKCYHYDIRTKHLVSEKGVIERVGVHPKLVRDYKSLAGDSSDNIPGVKGIGKTRALQLLKKYGDLEGVLTKGKKKQGGHLGDLLRAGAADAELSRKLVELRSCPKVLKACEAFMKL', 'soluble');
